test system: UACC-257 melanoma; test: NCI tumour cell line growth inhibition, 48 h; in the data active = GI50 below about 0.43 µM; inactive = the rest
*1 amine or outer side, *2 acyl side, *3 side chain or, on linkers, in order; H or OH if unused. Where a SMILES comes first, the peptide text is derived from it. Bridges are numbered along the chain shown (N, C = ends). [ ]: non-standard residue; d: D form. The star is where a group is joined. Phe(3,5-F2) = N[C@@H](Cc1cc(F)cc(F)c1)C(=O)O; Pro(4R-Me) = C[C@H]1CN[C@H](C(=O)O)C1; aThr = C[C@H](O)[C@H](N)C(=O)O; Pip = O=C(O)[C@@H]1CCCCN1; X10 = Fc1cc(C2CC2)ccc1N*; Abu = CC[C@H](N)C(=O)O; CO = O=C([*:1])[*:2]
Return exactly one item of True (active), False (inactive)

Returns: the outcome recorded for COc1cc(NC(=O)c2ccc(C(F)(F)F)nc2Nc2cc(Cl)ccc2C)cc(OC)c1OC in this assay. False

Lab log entry: CC1SC(c2ccc(Cl)c(Cl)c2)N(NC(=O)C(O)c2ccccc2)C1=O (stereo not drawn) — outcome as called in the assay? False

What was the test verdict on COc1cnc2c(c1)C(=O)c1c-2n(CCCBr)c(=O)c2cc([N+](=O)[O-])ccc12 ? False

Each compound tested received a call. Report the one for CC[C@@H]1NC(=O)[C@@H]2CCCCN2C(=O)[C@@H]2CCCN2C(=O)[C@@H](NC(=O)[C@H](Cc2cc(F)cc(F)c2)NC(=O)Nc2ccc(C3CC3)cc2F)[C@H](C)OC(=O)[C@@H]2C[C@@H](C)CN2C1=O ({X10-CO}-[Phe(3,5-F2)][aThr]P[Pip][Abu][Pro(4R-Me)]; ester 2-C) . True

Fill in: this test's call for Oc1ccc(CCl)c2cccnc12 is ___ False

Per the records of this test, what outcome belongs to O=C(O)c1sccc1O ? False

Could you check what this test reported for CC(C)=NNc1ncnc2c1ncn2C1OC(CO)C(O)C1O (stereo not drawn) ? False

Check the results log: what was the call for CC(=O)OC1CCC(OC(C)=O)[C@H]2[C@@H]1[C@@H]1S[C@H]2c2ccccc21 (stereo partly drawn) ? False

Test call, this compound: COc1cccc2cc(N(C)c3ncnc4ccccc34)ccc12 True

# outcome recorded in this test, key = Cc1cccc(NC2=C(Cl)C(=O)N(Cc3ccc(Cl)cc3)C2=O)c1 False

// return assay outcome for CC/C=C\C/C=C\C[C@H]1C/C=C2/C(=O)C=C[C@@H]2C/C=C\CCC(=O)O1 False

Hi team, can someone confirm the assay call for COc1cc(-c2nn(-c3ccc(NC(=O)NCCCNC(=O)c4ccccc4)cc3)cc2-c2ccncc2)ccc1Cl ? False

Call for entry CC(=O)Nc1ccc2c(C3=C(c4cn(C)c5ccccc45)C(=O)NC3=O)cn(C)c2c1 : False

Fill in: this test's call for Cc1ccc(C)c(COc2cc(NC(=O)c3ccc4c(c3)OCO4)ccc2N(C)S(C)(=O)=O)c1 is ___ False

Which outcome was entered for the compound Cc1cc(Nc2ncc(F)c(N[C@H]3[C@@H](C(N)=O)[C@@H]4C=C[C@H]3C4)n2)ccc1N1CCN(C)CC1 in this test? False

Outcome? O=[N+]([O-])c1ccc2scc3c4ccccc4nc-3c2c1 False

Per the assay record, what outcome was assigned to N.N.NCCCCCCN.O=C([O-])CCl.O=C([O-])CCl.O=C([O-])CCl.O=C([O-])CCl.[Pt+4].[Pt+4] ? False

Just curious, what result did Fc1ccc(-c2nnc3sc(-c4cc(Cl)cc(Cl)c4)nn23)cc1Cl get here? False

====

test system: SF-539 CNS; assay: NCI tumour cell line growth inhibition, 48 h
RESULT TYPE: TGI

Provide TGI, recorded with SF-539 CNS, of CC(=O)NC1=C(C)C(=O)c2c(nc3n2CCC3OC(=O)CCl)C1=O (stereo not given) 6.47 µM

Specify the recorded TGI for Clc1ccc(C2ON=C(c3ccccc3)N2C23CC4CC(CC(C4)C2)C3)c(Cl)c1 (stereo not given) , system: SF-539 CNS. > 10 µM

Print SF-539 CNS TGI for CC(O)(CCCCCl)c1nc2ccccc2s1 (stereo not given) . > 100 µM

// output TGI; input Cc1ccc(C)c(COc2cc(NC(=O)c3ccc4c(c3)OCO4)ccc2N(C)S(C)(=O)=O)c1 ; system SF-539 CNS 0.79 µM

Provide measured TGI on SF-539 CNS for O=C1CC2(CCC(O)(c3cccc4ccccc34)C(C(=O)c3cccc4ccccc34)C2)C(=O)c2ccccc2N1 (stereo not given) please. > 100 µM

====

tested on: DU-145 prostate; assay: NCI tumour cell line growth inhibition, 48 h
RESULT TYPE: TGI

Return the recorded TGI value; entry: CC1(C)CC(=O)c2c(nc3c(ccc4ccccc43)c2-c2ccc(NC(=O)CCCC(=O)Nc3ccc(-c4c5c(nc6c4ccc4ccccc46)CC(C)(C)CC5=O)cc3)cc2)C1 > 100 µM

Quickly give me recorded TGI for O=C(NC1CCC(Br)CC1)C1CCCC(S(=O)(=O)NC2CCCCC2)C1 (stereo not given) 47.7 µM

Output measured TGI for this item: COc1ccccc1-c1cc(=O)c2ccccc2n1C1CC1 14.4 µM

Answer with the recorded TGI for the compound listed here: Cc1cc(I)cc(CN(C)CCN2CCOCC2)c1O > 100 µM

Output measured TGI for this item: CN(C)CCNC(=O)c1cc([N+](=O)[O-])cn1C > 100 µM

Entry Oc1ccc(-c2cn3ccsc3n2)cc1O needs its TGI filled in; supply it. > 100 µM

Quote TGI reported for COc1ccc2c3c1O[C@H]1C(=O)C=CC4(n5[nH]c(=O)n(-c6ccccc6)c5=O)C(C2)N(C)CCC314 (stereo not given in full) please. > 100 µM

Specify reported TGI for the compound shown: O=C1CC2(CCC(O)(c3cccc4ccccc34)C(C(=O)c3cccc4ccccc34)C2)C(=O)c2ccccc2N1 (stereo not given) > 100 µM

Output measured TGI for this item: CN(CCNC(=O)c1nn(-c2ccccc2)c2c1ccc1ccccc12)CCNC(=O)c1nn(-c2ccccc2)c2c1ccc1ccccc12 70.2 µM

State its TGI for this compound: c1ccc(CSSSCc2ccccc2)cc1 4.97 µM

Recall and state the measured TGI for C[C@H]1CC[C@@H]2[C@@H](C)C[C@H]3[C@@H]4C(C)(C)OC(=O)[C@]4(C)C(=O)[C@@]23C1=O . > 100 µM

Please list TGI recorded for the compound O=[N+]([O-])c1cccc(-c2ncnc(-c3cccc([N+](=O)[O-])c3)n2)c1 > 100 µM

Please report TGI for the following compound: Nc1c(C(=O)Nc2ccccn2)sc2nc3c(cc12)CCCCC3 > 50 µM

State its TGI for this compound: CC(=O)Oc1ccc2oc(=O)cc(C)c2c1 > 100 µM

Entry COc1cccc2cc(N(C)c3ncnc4ccccc34)ccc12 needs its TGI filled in; supply it. 10.4 µM

Give the measured TGI for NC(Cc1c[nH]c2ccccc12)P(=O)(O)O (stereo not given) > 100 µM

Indicate the recorded TGI value for this compound: O=C1OC(=O)C2=C1C(c1cccs1)C=C(c1cccnc1)N2c1ccncc1 (stereo not given) 30.2 µM

Complete the entry with TGI for CCc1nc(N)nc(N)c1-c1ccc(Cc2ccccc2)c([N+](=O)[O-])c1 > 76.3 µM

Indicate the recorded TGI value for this compound: O=C1c2ccc3cc(CCl)cc(O)c3c2C(=O)c2cccc(O)c21 > 10 µM

Please report the measured TGI for CCOC(=O)/C=C(/OCC)[C@@H]1C(C(=O)c2ccc(Cl)cc2)[C@H]1/C(=C\C(=O)OCC)OCC (stereo not given in full) > 100 µM

====

tested on: HOP-62 NSCLC; experiment: NCI tumour cell line growth inhibition, 48 h
Give measured GI50 for each item. Keep answers brief.

Identify GI50 associated with the compound COc1cc2c(cc1OCCCCCN1CCN(c3cc(=O)oc4ccccc34)CC1)N=C[C@@H]1CCCN1C2=O 151 nM

Answer with reported GI50 of O=c1[nH]c2ccc(N=Cc3c(O)[nH]c4ccccc34)cc2[nH]1 > 17700 nM

Entry Cc1cc(Nc2ncc(F)c(N[C@H]3[C@@H](C(N)=O)[C@@H]4C=C[C@H]3C4)n2)ccc1N1CCN(C)CC1 needs its GI50 filled in; supply it. 134 nM

Give the measured GI50 for O=C(Nc1ccc(Oc2cccc(Cl)c2)c(Cl)c1)c1cnccn1 368 nM

====

I'd be grateful if you could share measured TGI for these entries.
system: TK-10 renal; test: NCI tumour cell line growth inhibition, 48 h

Param request: TGI | system TK-10 renal | item Cc1oc2c(c1C)S(=O)(=O)C(C#N)=CN2 > 100 µM

Please tell me the measured TGI for CC[C@]1(Cc2ccc(OC)c(OC)c2)[C@@H]2C[C@@H](C(=O)OC)ON2O[C@H](OC2CCCC2(c2ccccc2)c2ccccc2)[C@@H]1OC(C)=O (some centres undefined) ; system: TK-10 renal. > 100 µM

// fetch TGI for NC(Cc1c[nH]c2ccccc12)P(=O)(O)O (centres undefined) ; system: TK-10 renal > 100 µM

Under TK-10 renal: report TGI of COc1cccc2cc(N(C)c3ncnc4ccccc34)ccc12 . 16.9 µM

State TGI (TK-10 renal) of O=C(CC(Cl)(Cl)C(Cl)(Cl)Cl)c1ccccc1 . 18.4 µM

Provide TK-10 renal TGI reading for CCCCCCCCCCCC[C@H](O)[C@H]1CC[C@H]([C@H](O)CCCC[C@H](O)CCCCC[C@@H](O)CC2=C[C@H](C)OC2=O)O1 . 26.8 µM

Give measured TGI for O=[N+]([O-])c1ccc(N=Nc2c(O)[nH]c3ccc(Br)cc23)cc1 (TK-10 renal). 36 µM

Write down measured TGI (TK-10 renal) for this compound. CCC[CH2][Sn]([CH2]CCC)([O]C(=O)c1ccc(C)c(N)c1)[O]C(=O)c1ccc(C)c(N)c1 1.66 µM

Look up and report TGI, with TK-10 renal as system, for COc1ccc2c(=O)c(-c3cc4c(cc3OC)OCO4)coc2c1 > 100 µM
